- Test system: ESCHERICHIA COLI H560
- Method Notes: In vitro antibacterial activity, MIC, BHI agar dilution
- Format: cell-based
- Experimental Parameters: E. coli H560, unit assumed
Task for the reader: assign each of the following compounds its reported MIC.

CCOC(=O)CCN1CC2N=C3C(C)CC(C)(OC)C(OC4OC(C)CC(N(C)C)C4O)C(C)C(=O)C(C)C(=O)OC(CC)C4(C)OC(=O)N(C2C1)C4C3C (stereo not drawn) : > 100 µg/mL
CC[C@H]1OC(=O)[C@H](C)C(=O)[C@H](C)[C@@H](O[C@@H]2O[C@H](C)C[C@H](N(C)C)[C@H]2O)[C@](C)(OC)C[C@@H](C)C2=N[C@@H]3CN(Cc4ccc(Cl)cc4)C[C@@H]3N3C(=O)O[C@@]1(C)[C@H]3[C@H]2C : > 100 µg/mL

Proceed to the following item.
(Q) For CC[C@H]1OC(=O)[C@H](C)C(=O)[C@H](C)[C@@H](O[C@@H]2O[C@H](C)C[C@H](N(C)C)[C@H]2O)[C@](C)(OC)C[C@@H](C)C2=N[C@@H]3COC[C@@H]3N3C(=O)O[C@@]1(C)[C@H]3[C@H]2C , what is its reported MIC?
(A) > 100 µg/mL
